- TEST_TARGET: full-length recombinant rat vitamin D receptor (Rattus norvegicus)
- Construct: Full-length recombinant rat receptor was expressed in E. coli BL21 (DE3) Codon Plus RIL cells; histidine tag (C); made in house; host or cells: E. coli BL21 (DE3) Codon Plus RIL
- Sequence (P13053 1-423): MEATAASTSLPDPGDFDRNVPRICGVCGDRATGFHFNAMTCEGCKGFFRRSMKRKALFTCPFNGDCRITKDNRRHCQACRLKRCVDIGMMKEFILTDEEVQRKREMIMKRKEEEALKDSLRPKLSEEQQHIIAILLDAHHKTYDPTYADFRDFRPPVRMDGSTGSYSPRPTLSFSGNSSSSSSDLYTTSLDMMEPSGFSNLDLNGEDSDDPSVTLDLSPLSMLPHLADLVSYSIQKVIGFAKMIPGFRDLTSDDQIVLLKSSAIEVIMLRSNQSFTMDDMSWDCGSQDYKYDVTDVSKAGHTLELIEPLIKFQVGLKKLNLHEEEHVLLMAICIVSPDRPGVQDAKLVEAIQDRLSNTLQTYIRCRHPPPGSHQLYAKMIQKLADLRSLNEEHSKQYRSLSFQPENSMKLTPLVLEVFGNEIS
- MEASUREMENT_DESCRIPTION: Vitamin D receptor binding, competition with [3H]-1,25(OH)2D3
- EXPERIMENTAL_CONTEXT: full-length recombinant rat VDR; FIG. 1
- Method: Full-length recombinant rat receptor was expressed in E. coli BL21 (DE3) Codon Plus RIL cells and purified to homogeneity using two different column chromatography systems. […] Radiolabeled and unlabeled ligands were added to 100 mcl of the diluted protein at a final ethanol concentration of ≦10%, mixed and incubated overnight on ice to reach binding equilibrium. […] Total binding was determined from the tubes containing only radiolabeled ligand.

# SMILES_REPRESENTATION, Ki
records = [
    ("C=C1[C@H](O)CC(=C/C=C2\\CCC[C@]3(C)/C(=C\\CCCC(C)(C)O)CC[C@@H]23)C[C@H]1O", "0.2 nM"),
]
